# EXPERIMENT NOTES: In vitro human liver microsomal stability assay
# Format: in vitro ADME
# COND: human liver microsomes
MEASURED QUANTITY: % Parent Remaining at 30 min

Some molecules with recorded % Parent Remaining at 30 min:
> print(dat)
                                   molecule    reported.result
1  O=C(c1csc(-c2cn[nH]c2)c1)N1CCC(O)(c2ccc(F)cc2F)CC1 [AA-09]  +++ (61-100% +++)
2  COc1ccccc1C1CCN(C(=O)c2csc(-c3cn[nH]c3)c2)CC1 [BB-03]        + (0-30% +)
3  O=C(c1csc(-c2cn[nH]c2)c1)N1CCC(O)(c2ccccc2)CC1 [AA-01]  +++ (61-100% +++)
4  O=C(c1csc(-c2cn[nH]c2)c1)N1CCC(O)(c2ccc(Cl)cc2F)CC1 [AA-07]  +++ (61-100% +++)
5  O=C(c1csc(-c2cn[nH]c2)c1)N1CCC(F)(c2ccccc2Cl)CC1 [AA-36]        + (0-30% +)
6  O=C(c1csc(-c2cn[nH]c2)c1)N1CCC(O)(c2ccc(Cl)cc2)CC1 [AA-02]  +++ (61-100% +++)
7  O=C(c1csc(-c2cn[nH]c2)c1)N1CCC(c2cccc(F)c2)CC1 [BB-05]     ++ (31-60% ++)
8  O=C(c1csc(-c2cn[nH]c2)c1)N1CCC(O)(c2ccc(F)cc2)CC1 [AA-05]  +++ (61-100% +++)

For the 8 molecules below, give their % Parent Remaining at 30 min values.
1. O=C(c1csc(-c2cn[nH]c2)c1)N1CCC(F)(c2ccccc2)CC1 [AA-17]
2. O=C(c1csc(-c2cn[nH]c2)c1)N1CCC(F)(c2cc(F)ccc2Cl)CC1 [AA-37]
3. O=C(c1csc(-c2cn[nH]c2)c1)N1CCC(c2ccc(F)cc2)CC1 [BB-01]
4. O=C(c1csc(-c2cn[nH]c2)c1)N1CCC(O)(c2ccccc2F)CC1 [AA-04]
5. COC1(c2ccccc2)CCN(C(=O)c2csc(-c3cn[nH]c3)c2)CC1 [AA-15]
6. CC1(c2ccccc2)CCN(C(=O)c2csc(-c3cn[nH]c3)c2)CC1 [AA-16]
7. O=C(c1csc(-c2cn[nH]c2)c1)N1C2CCC1CC(O)(c1ccccc1)C2 (stereo not shown) [AA-06]
8. O=C(c1csc(-c2cn[nH]c2)c1)N1CCC(c2ccc(Cl)cc2)CC1 [BB-06]

["+++ (61-100% +++)", "++ (31-60% ++)", "+++ (61-100% +++)", "+++ (61-100% +++)", "++ (31-60% ++)", "+ (0-30% +)", "+++ (61-100% +++)", "+++ (61-100% +++)"]

FYI, the data here is from patent US8642621B2.
